The following compounds are listed with their measured Cmax values.
# protocol_text: Toxicokinetics test in the satellite groups (UPLC-MS/MS of rat plasma)
# Format: in vivo
# condition_description: male, SD, rat, plasma, po, male rats, Day 28, lowest dose (berberine 8.01, epiberberine 0.82, coptisine 1.38, palmatine 2.03, jatrorrhizine 0.31, columbamine 0.66 mg/kg); read-out: Cmax mean

> print(dat)
                                   compound    measured
1  COc1cc2c(cc1O)CC[n+]1cc3c(OC)c(OC)ccc3cc1-2 [jatrorrhizine]  16.4 ng/mL

Could you now consider this next compound?
Returns the measured Cmax for the input compound. Input: COc1cc2c(cc1O)-c1cc3ccc(OC)c(OC)c3c[n+]1CC2 [columbamine]
44.2 ng/mL

* * *

# protocol_text: Toxicokinetics test in the satellite groups (UPLC-MS/MS of rat plasma)
# Type: in vivo
# condition_description: female, SD, rat, plasma, po, female rats, Day 1, middle dose (berberine 24.03, epiberberine 2.47, coptisine 2.47, palmatine 6.09, jatrorrhizine 0.93, columbamine 1.98 mg/kg)
The following molecules are listed with their measured Tmax values.
Provide only the numeric value, understood in min.

> print(dat)
                                   molecule  measured
1  COc1cc2c(cc1O)CC[n+]1cc3c(OC)c(OC)ccc3cc1-2 [jatrorrhizine]      49.8

Could you now consider this next molecule?
Returns the measured Tmax for the input molecule. Input: COc1cc2c(cc1O)-c1cc3ccc(OC)c(OC)c3c[n+]1CC2 [columbamine]
49.8

* * *

# protocol_text: Toxicokinetics test in the satellite groups (UPLC-MS/MS of rat plasma)
# Assay type: in vivo
# condition_description: male, SD, rat, plasma, po, male rats, Day 1, highest dose (berberine 72.08, epiberberine 7.42, coptisine 7.42, palmatine 18.26, jatrorrhizine 2.80, columbamine 5.93 mg/kg); read-out: T1/2 mean (converted)
measurement_kind: half-life (h)
Provide only the numeric value, understood in h.

Returns the measured half-life for the input molecule. Input: COc1cc2c(cc1O)-c1cc3ccc(OC)c(OC)c3c[n+]1CC2 [columbamine]
10.9

* * *

# protocol_text: Toxicokinetics test in the satellite groups (UPLC-MS/MS of rat plasma)
# Assay type: in vivo
# condition_description: male, SD, rat, plasma, po, male rats, Day 28, middle dose (berberine 24.03, epiberberine 2.47, coptisine 2.47, palmatine 6.09, jatrorrhizine 0.93, columbamine 1.98 mg/kg); read-out: AUC0-t mean
The following compounds are listed with their measured AUC(0-t) values.
Provide only the numeric value, understood in ng·h/mL.

Returns the measured AUC(0-t) for the input compound. Input: COc1cc2c(cc1O)CC[n+]1cc3c(OC)c(OC)ccc3cc1-2 [jatrorrhizine]
33.3

Returns the measured AUC(0-t) for the input compound. Input: COc1cc2c(cc1O)-c1cc3ccc(OC)c(OC)c3c[n+]1CC2 [columbamine]
90.6

* * *

# protocol_text: Toxicokinetics test in the satellite groups (UPLC-MS/MS of rat plasma)
# Type: in vivo
# condition_description: male, SD, rat, plasma, po, male rats, Day 1, middle dose (berberine 24.03, epiberberine 2.47, coptisine 2.47, palmatine 6.09, jatrorrhizine 0.93, columbamine 1.98 mg/kg); read-out: AUC0-t mean
measurement_kind: AUC(0-t) (ng·h/mL)
Provide only the numeric value, understood in ng·h/mL.

> print(dat)
                                   compound  measurement.kind  readout.unit  measured
1  COc1cc2c(cc1O)CC[n+]1cc3c(OC)c(OC)ccc3cc1-2 [jatrorrhizine]          AUC(0-t)       ng·h/mL      74.5

Could you now consider this next compound?
Returns the measured AUC(0-t) for the input compound. Input: COc1cc2c(cc1O)-c1cc3ccc(OC)c(OC)c3c[n+]1CC2 [columbamine]
207
